- System: Wnt pathway (Sp5-Luc reporter, TCF/LEF binding sites) in SW480 colon carcinoma cells
- Experimental Details: Screening assay for Wnt activity: Sp5-Luc reporter gene assay;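 further: firefly luciferase luminescence read in stably transduced SW480 cells carrying the Sp5 promoter reporter with eight TCF/LEF sites, compounds given in 0.1% DMSO final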
- Format: cell-based, human
- Test Conditions: Homo sapiens; Sp5-Luc reporter, SW480 cells, 36 to 48 hours
Lab note - cut at 1000 nM for EC50: Criterion met if strictly below, Criterion not met if not.

Answer whether the molecule Cc1cc(-c2ccc3cnc(NC(=O)C4CCN(CCC(F)(F)F)CC4)cc3c2)on1 has EC50 strictly less than 1000 nM
Criterion not met

Please determine if Cn1cc(-c2ccc3cnc(NC(=O)C4CCN(C(=O)CN5CCCC5)CC4)cc3c2)cn1 is below 1000 nM in terms of EC50.
Criterion met

Check if EC50 falls below 1000 nM for CN1CCC[C@@H]1C(=O)Nc1cc2cc(-c3cnn(C)c3)ccc2cn1 .
Criterion not met

Does the reported EC50 of the following molecule sit strictly below 1000 nM? CCn1cc(-c2ccc3cnc(NC(=O)CN4CCCC4)cc3c2)cn1
Criterion not met

Item CC1CCN(CC(=O)Nc2cc3cc(-c4cnn(C)c4)ccc3cn2)CC1 : EC50 beneath 1000 nM, strictly?
Criterion not met

In the record for Cn1cc(-c2ccc3cnc(NC(=O)CN4CC[C@@H](F)C4)cc3c2)cn1 , is EC50 less than 1000 nM?
Criterion not met

Would you kindly verify if EC50 of O=C(Nc1cc2cc(-c3cnc4n3CCNC4)ccc2cn1)[C@@H]1CCCNC1 is strictly less than 1000 nM?
Criterion not met

In the record for CC(C)CN1CCC(F)(C(=O)Nc2cc3cc(-c4cn(C)nn4)ccc3cn2)CC1 , is EC50 less than 1000 nM?
Criterion not met

Find out if reported EC50 for Cn1cc(-c2ccc3cnc(NC(=O)C4CCC(F)(F)CC4)cc3c2)nn1 is less than 1000 nM
Criterion not met

Quick check: does Cn1cc(-c2ccc3cnc(NC(=O)C4CCN(CC(C)(C)O)CC4)cc3c2)cn1 have EC50 under 1000 nM?
Criterion met

Confirm or reject: EC50 of [2H]C([2H])([2H])n1cc(-c2cc(F)c3cnc(NC(=O)CN4CCCCC4)cc3c2)cn1 lies strictly below 1000 nM
Criterion not met

# check: EC50 < 1000 nM for CC(C)CN1CCC(C(=O)Nc2cc3cc(-c4cncn4C)ccc3cn2)CC1
Criterion met

Given Cn1cc(-c2ccc3cnc(NC(=O)C4CCN(CC(=O)O)CC4)cc3c2)cn1 , is recorded EC50 strictly lower than 1000 nM?
Criterion not met

Is 1000 nM strictly greater than the molecule's reported EC50? molecule: C[C@@H]1CCCN1CC(=O)Nc1cc2cc(-c3cnn(C)c3)ccc2cn1
Criterion not met

# check: EC50 < 1000 nM for Cn1ncc(-c2ccc3cnc(NC(=O)[C@H]4CC[C@H](CO)CC4)cc3c2)c1CN1CCCCC1
Criterion met

Is the reported EC50 for Cn1cc(-c2ccc3cnc(NC(=O)C4CCN(CC5(C(F)(F)F)CC5)CC4)cc3c2)cn1 strictly below 1000 nM?
Criterion not met

Hello, is EC50 of the following molecule strictly smaller than 1000 nM? CCN(CC)c1ncc(-c2ccc3cnc(NC(=O)CN4CCN(C)CC4)cc3c2)s1
Criterion not met

Threshold test, EC50 < 1000 nM: CC(C)N1CCN(CC(=O)Nc2cc3cc(-c4cnn(C)c4)ccc3cn2)CC1
Criterion not met

For this molecule, is EC50 lower than 1000 nM? CN1CCN(C[C@H]2CC[C@H](C(=O)Nc3cc4cc(-c5cn(C)nn5)ccc4cn3)CC2)CC1
Criterion met

is_below(EC50, 1000 nM) for Cn1nncc1-c1ccc2cnc(NC(=O)C3CCN(CCC(F)(F)F)CC3)cc2c1 ?
Criterion not met

Just wondering, is EC50 of Cn1cncc1-c1ccc2cnc(NC(=O)C3CNC3)cc2c1 below 1000 nM?
Criterion not met

Given CN1CCC(C(=O)Nc2cc3cc(-c4cncs4)ccc3cn2)CC1 , is recorded EC50 strictly lower than 1000 nM?
Criterion met

For this molecule, is EC50 lower than 1000 nM? Cn1cc(-c2ccc3cnc(NC(=O)C4CCN(C(=O)c5ccccc5)CC4)cc3c2)cn1
Criterion met

Confirm or reject: EC50 of Cn1cc(-c2ccc3cnc(NC(=O)CN4C5CCC4CC5)cc3c2)nn1 lies strictly below 1000 nM
Criterion not met

Given the entry CN1CCC(NC(=O)Nc2cc3cc(-c4cnn(C)c4)ccc3cn2)CC1 , would its reported EC50 be below 1000 nM?
Criterion met

# check: EC50 < 1000 nM for CC(C)CN1CCC[C@@H](C(=O)Nc2cc3cc(-c4cn(C)nn4)ccc3cn2)C1
Criterion not met
